- STUDY_SYSTEM: Protein deacetylase HDAC6 (Homo sapiens)
- Sequence (Q9UBN7 whole entry): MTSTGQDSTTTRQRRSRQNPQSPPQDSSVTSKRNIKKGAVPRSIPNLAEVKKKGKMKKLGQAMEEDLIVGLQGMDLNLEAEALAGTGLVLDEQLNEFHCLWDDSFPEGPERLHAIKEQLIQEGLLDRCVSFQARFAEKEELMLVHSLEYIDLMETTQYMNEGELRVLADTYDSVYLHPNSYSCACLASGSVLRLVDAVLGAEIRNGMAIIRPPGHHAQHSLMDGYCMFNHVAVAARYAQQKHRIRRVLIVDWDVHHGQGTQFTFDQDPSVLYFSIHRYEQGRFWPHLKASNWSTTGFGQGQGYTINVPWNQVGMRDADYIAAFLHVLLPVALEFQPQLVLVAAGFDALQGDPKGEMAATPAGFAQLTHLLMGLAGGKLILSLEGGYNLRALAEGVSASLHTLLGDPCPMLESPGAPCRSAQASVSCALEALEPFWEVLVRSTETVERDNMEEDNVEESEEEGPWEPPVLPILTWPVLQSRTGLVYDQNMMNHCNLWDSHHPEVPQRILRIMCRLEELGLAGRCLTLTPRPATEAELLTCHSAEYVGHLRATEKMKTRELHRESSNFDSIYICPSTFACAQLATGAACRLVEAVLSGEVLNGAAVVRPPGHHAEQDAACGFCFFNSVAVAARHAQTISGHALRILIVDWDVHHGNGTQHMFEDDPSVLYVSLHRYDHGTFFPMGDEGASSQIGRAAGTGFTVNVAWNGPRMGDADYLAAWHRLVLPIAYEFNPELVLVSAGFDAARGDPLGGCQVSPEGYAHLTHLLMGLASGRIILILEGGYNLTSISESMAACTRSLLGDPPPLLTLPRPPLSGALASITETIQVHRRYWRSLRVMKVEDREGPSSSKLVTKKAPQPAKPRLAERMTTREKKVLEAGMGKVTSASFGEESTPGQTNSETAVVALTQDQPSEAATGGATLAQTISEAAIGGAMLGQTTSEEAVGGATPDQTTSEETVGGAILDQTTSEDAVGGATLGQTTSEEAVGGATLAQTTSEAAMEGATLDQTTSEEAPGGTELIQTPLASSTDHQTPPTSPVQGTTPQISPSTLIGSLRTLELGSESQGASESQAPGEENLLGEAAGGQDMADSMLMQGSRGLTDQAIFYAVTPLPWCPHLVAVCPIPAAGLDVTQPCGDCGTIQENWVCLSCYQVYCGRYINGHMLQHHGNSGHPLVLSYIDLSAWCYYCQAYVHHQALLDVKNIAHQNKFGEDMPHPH
- ASSAY_INFO: Inhibition of HDAC6 (unknown origin) using fluorogenic peptide RHKKAc-AMC as substrate by fluorescence-based assay
The compounds listed here are annotated with their IC50.
Numeric answer only, unit nM assumed.

Query: Lookup: IC50 / Protein deacetylase HDAC6 (Homo sapiens) / O=C(NO)c1ccc(CN2CCN(C(=O)c3c[nH]c4cc(F)ccc34)CC2)cc1
Result: 14

Query: What about O=C(NO)c1ccc(CN2CCN(C(=O)c3c[nH]c4cc(OCc5ccccc5)ccc34)CC2)cc1 ?
Result: 23.4

Query: What about O=C(NO)c1ccc(CN2CCN(C(=O)c3c[nH]c4ccc(Cl)cc34)CC2)cc1 ?
Result: 26

Query: What about O=C(NO)c1ccc(CN2CCN(C(=O)c3c[nH]c4ccccc34)CC2)cc1 ?
Result: 14.4

Query: What about Cc1cccc2c(C(=O)N3CCN(Cc4ccc(C(=O)NO)cc4)CC3)c[nH]c12 ?
Result: 13.6

Query: What about O=C(NO)c1ccc(CN2CCN(C(=O)c3cc4ccccc4[nH]3)CC2)cc1 ?
Result: 88.5

Ref: ChEMBL document CHEMBL5236672
